Assay: Single dose oral pharmacokinetic study in fasted male Sprague Dawley rats (arginine in plasma, LC-MS/MS)
Type: in vivo
Conditions: rat, 500 mg/kg; arginine in plasma; fasted male Sprague Dawley rats; single oral dose equivalent to 500 mg L-Arginine/kg b.w.

{"MOLECULE": "Cl.N=C(N)NCCC[C@H](N)C(=O)O [L-Arginine HCl, L-Arginine hydrochloride]", "MRT last / h": 2.48}
{"MOLECULE": "N=C(N)NCCC[C@H](N)C(=O)O", "MRT last / h": 1.66}

---

Test: Single dose oral pharmacokinetic study in fasted male Sprague Dawley rats (arginine in plasma, LC-MS/MS)
Type: in vivo
Settings: rat, 500 mg/kg; arginine in plasma; fasted male Sprague Dawley rats; single oral dose equivalent to 500 mg L-Arginine/kg b.w.
MEASURED ENDPOINT: half-life

{"COMPOUND": "Cl.N=C(N)NCCC[C@H](N)C(=O)O [L-Arginine HCl, L-Arginine hydrochloride]", "REPORTED VALUE": "3.08 h"}
{"COMPOUND": "N=C(N)NCCC[C@H](N)C(=O)O [L-Arginine Base, L-Arginine]", "REPORTED VALUE": "1.41 h"}

---

Assay: Single dose oral pharmacokinetic study in fasted male Sprague Dawley rats (arginine in plasma, LC-MS/MS)
Assay type: in vivo
Settings: rat, 500 mg/kg; arginine in plasma; fasted male Sprague Dawley rats; single oral dose equivalent to 500 mg L-Arginine/kg b.w.; read-out: Tmax

{"COMPOUND": "Cl.N=C(N)NCCC[C@H](N)C(=O)O [L-Arginine HCl, L-Arginine hydrochloride]", "MEASUREMENT UNITS": "min", "Tmax": 66}
{"COMPOUND": "N=C(N)NCCC[C@H](N)C(=O)O", "MEASUREMENT UNITS": "min", "Tmax": 39}

---

AUC(0-t) values for the molecules below.
Assay: Single dose oral pharmacokinetic study in fasted male Sprague Dawley rats (arginine in plasma, LC-MS/MS)
Assay type: in vivo
Conditions: rat, 500 mg/kg; arginine in plasma; fasted male Sprague Dawley rats; single oral dose equivalent to 500 mg L-Arginine/kg b.w.
MEASURED ENDPOINT: AUC(0-t) (µg·h/mL)

{"MOLECULE": "Cl.N=C(N)NCCC[C@H](N)C(=O)O [L-Arginine HCl, L-Arginine hydrochloride]", "MEASURED ENDPOINT": "AUC(0-t)", "REPORTED VALUE": 306}
{"MOLECULE": "N=C(N)NCCC[C@H](N)C(=O)O", "MEASURED ENDPOINT": "AUC(0-t)", "REPORTED VALUE": 445}

---

Assay: Single dose oral pharmacokinetic study in fasted male Sprague Dawley rats (arginine in plasma, LC-MS/MS)
Type: in vivo
Settings: rat, 500 mg/kg; arginine in plasma; fasted male Sprague Dawley rats; single oral dose equivalent to 500 mg L-Arginine/kg b.w.; read-out: Cmax

{"COMPOUND": "N=C(N)NCCC[C@H](N)C(=O)O", "Cmax / µg/mL": 202}
{"COMPOUND": "Cl.N=C(N)NCCC[C@H](N)C(=O)O [L-Arginine HCl, L-Arginine hydrochloride]", "Cmax / µg/mL": 94.7}
